test: yeast display, Sf9 membrane polyspecificity reagent, FACS + sequencing; frameworks hold sequencing errors
recorded_endpoint: polyreactivity (PSR sort gate)

Field: example entries. Status: answers known.
{"residues": "QVQLVESGGGLVQAGGSLRLSFDASGSIFSFYAMGGYSQAPGKERELVAAIRWSGGRTYYADSVKGRFTISRDPAKNTVYLQMNSLKPEDTAVYYCAADKYLDYDYWGQGTQVTVSS", "value_observed": "high polyreactivity"}
{"residues": "QVQLQESVGGLVQAGGSLRLSCAASGNIFPTDRMGWYRQAPGKELEFVATISHGGSTNYADSVKGRFTISRDNAKNTVYLQMNSLKPEDTAVFYCAVWSLGRWRHYYWGQGTQVTVSS", "value_observed": "low polyreactivity"}
{"residues": "QVQLVESGGGLVQAGGSLRLSCAASGRTLVKYAMGWYRQAPGKERELVAAISSGGGTYYADSVKGRFTISRDNAKNTVYLQMNSLKPEDTAVYYCATPYYRRYAAPGYDYWGQGTQVTVSS", "value_observed": "low polyreactivity"}
{"residues": "QVQLVESGGGLVQPGGSLRLSCAASGRTYRWYAMGWYRQAPGKERELVASITSGVSTYYADSVTGRCTISRDNAKNTVNLQMNSLKPEDTAVYYCAAGYRFTTYLVYNYWGQGTHVTVSS", "value_observed": "high polyreactivity"}
{"residues": "QVQLVESGGGLVQAGGSLRLRCAASGSTFFRYAMGWYRPAPGKERELLAAITSGGITNYADSVKGRFTISRDNAKNTVYLQMHSLKPEDTAVYYCAKRRTYPGKGRFNYWGQGTQVTVSS", "value_observed": "low polyreactivity"}
{"residues": "QVQLVDSGGGLVQAGGSLRLSCAASGSIFGYYAMGWYRQAPGKERELVAAINSGSSTNYADSVKGRFTISRDNAKNTVYLQMNSLKPEDTAVYYCNKDPWYVFHPRGLFLFDYWGQGTQVTVSS", "value_observed": "low polyreactivity"}

Attention now turns to another entry.
Inquiry: Requested field: polyreactivity (PSR sort gate). Item: `QVQLVESGGGLVQAGGSLRLSCAASGRTFYGNAMGWYRQAPGKERELVAGITRGGSTYYADSVKGRFTISRDNAKITVYLQMNSLKPEDTAVYYCAARAYYARFLMGYWGQVTQVTVSS`
Reply text: high polyreactivity
